I'd appreciate it if you could supply self-cleavage values for the items below.
B1: LINE1-mini (parent)
chain: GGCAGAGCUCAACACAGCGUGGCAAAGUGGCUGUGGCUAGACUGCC

variants of: B1; assay: self-cleavage, relative activity (ratio to wild type); higher = more cleavage; in vitro, sequencing; the parent is a self-cleaving ribozyme

Task: What value of measured self-cleavage is listed for U34A G35U ?
Result: 0.06

Task: What value of measured self-cleavage is listed for G17C A24U ?
Result: 0.6

Task: What value of measured self-cleavage is listed for G7U G30A ?
Result: 0.11

Task: What value of measured self-cleavage is listed for G17U A25U ?
Result: 0.12

Task: What value of measured self-cleavage is listed for G2U U43A ?
Result: 0.04

Task: What value of measured self-cleavage is listed for G27A G44C ?
Result: 0.65

Task: What value of measured self-cleavage is listed for C10U A25U ?
Result: 0.48

Task: What value of measured self-cleavage is listed for U9C G22C ?
Result: 0.03

Task: What value of measured self-cleavage is listed for C31A U43C ?
Result: 0.05

Task: What value of measured self-cleavage is listed for G17C G33A ?
Result: 0.06

Task: What value of measured self-cleavage is listed for G22A G29U ?
Result: 0.65

Task: What value of measured self-cleavage is listed for C18U A24C ?
Result: 0.39

Task: What value of measured self-cleavage is listed for A11U G36C ?
Result: 0.03

Task: What value of measured self-cleavage is listed for G5C U9C ?
Result: 0.04

Task: What value of measured self-cleavage is listed for C18U G30A ?
Result: 1.78

Task: What value of measured self-cleavage is listed for G22A C45U ?
Result: 1.44

Task: What value of measured self-cleavage is listed for A4G G40A ?
Result: 0.13

Task: What value of measured self-cleavage is listed for G19C C37G ?
Result: 0.02

Task: What value of measured self-cleavage is listed for U20C G27U ?
Result: 0.31

Task: What value of measured self-cleavage is listed for A12G U32C ?
Result: 0.14

Task: What value of measured self-cleavage is listed for A11G C23A ?
Result: 0.04

Task: What value of measured self-cleavage is listed for G2U C42U ?
Result: 0.1

Task: What value of measured self-cleavage is listed for G1A G7U ?
Result: 0.3

Task: What value of measured self-cleavage is listed for G33C C37A ?
Result: 0.03

Task: What value of measured self-cleavage is listed for C23U C31A ?
Result: 0.24

Task: What value of measured self-cleavage is listed for G44U C45U ?
Result: 0.14

Task: What value of measured self-cleavage is listed for C23U A25U ?
Result: 0.93

Task: What value of measured self-cleavage is listed for C10A G21A ?
Result: 0.08

Task: What value of measured self-cleavage is listed for A11G C18A ?
Result: 0.04

Task: What value of measured self-cleavage is listed for A25U C45A ?
Result: 0.41

Task: What value of measured self-cleavage is listed for A4C C13A ?
Result: 0.15

Task: What value of measured self-cleavage is listed for A16G U28C ?
Result: 0.44

Task: What value of measured self-cleavage is listed for U9C G21U ?
Result: 0.04

Task: What value of measured self-cleavage is listed for U34G C46U ?
Result: 0.19

Task: What value of measured self-cleavage is listed for U20A G33A ?
Result: 0.13

Task: What value of measured self-cleavage is listed for A26C A39U ?
Result: 0.43

Task: What value of measured self-cleavage is listed for G22U C46U ?
Result: 1.22

Task: What value of measured self-cleavage is listed for G1C A4C ?
Result: 0.12

Task: What value of measured self-cleavage is listed for A6G G33U ?
Result: 0.07

Task: What value of measured self-cleavage is listed for U34A A39U ?
Result: 0.06

Task: What value of measured self-cleavage is listed for C10G A16C ?
Result: 0.02

Task: What value of measured self-cleavage is listed for C37U U43G ?
Result: 0.11

Task: What value of measured self-cleavage is listed for A12C C46A ?
Result: 0.02

Task: What value of measured self-cleavage is listed for C23A C31G ?
Result: 0.08

Task: What value of measured self-cleavage is listed for G7U U28G ?
Result: 0.07

Task: What value of measured self-cleavage is listed for G35A G36U ?
Result: 0.19

Task: What value of measured self-cleavage is listed for A25U U43C ?
Result: 0.1

Task: What value of measured self-cleavage is listed for U9C U20G ?
Result: 0.03

Task: What value of measured self-cleavage is listed for A11C A16C ?
Result: 0.01

Task: What value of measured self-cleavage is listed for A14C A16C ?
Result: 0.08

Task: What value of measured self-cleavage is listed for C10A A25G ?
Result: 0.04

Task: What value of measured self-cleavage is listed for G5U C23A ?
Result: 0.11

Task: What value of measured self-cleavage is listed for A6C A25U ?
Result: 0.52

Task: What value of measured self-cleavage is listed for C3G U28G ?
Result: 0.19

Task: What value of measured self-cleavage is listed for C3G G30U ?
Result: 0.71

Task: What value of measured self-cleavage is listed for C8A C18A ?
Result: 0.37

Task: What value of measured self-cleavage is listed for C3G G27U ?
Result: 0.32

Task: What value of measured self-cleavage is listed for G2C A16U ?
Result: 0.04

Task: What value of measured self-cleavage is listed for C18U G21U ?
Result: 2.05

Task: What value of measured self-cleavage is listed for U32C C45G ?
Result: 0.03

Task: What value of measured self-cleavage is listed for U32C C46A ?
Result: 0.16

Task: What value of measured self-cleavage is listed for A11G U34G ?
Result: 0.03

Task: What value of measured self-cleavage is listed for A6U C13A ?
Result: 0.2

Task: What value of measured self-cleavage is listed for G19U A26U ?
Result: 0.56

Task: What value of measured self-cleavage is listed for G30U U38G ?
Result: 0.03

Task: What value of measured self-cleavage is listed for G35U A41G ?
Result: 0.08

Task: What value of measured self-cleavage is listed for G5A U20C ?
Result: 0.06

Task: What value of measured self-cleavage is listed for C31A C45G ?
Result: 0.06

Task: What value of measured self-cleavage is listed for A39C C45G ?
Result: 0.12

Task: What value of measured self-cleavage is listed for C3G C23U ?
Result: 0.81

Task: What value of measured self-cleavage is listed for G33U G40C ?
Result: 0.05

Task: What value of measured self-cleavage is listed for C8A C45A ?
Result: 0.7

Task: What value of measured self-cleavage is listed for A14G C46A ?
Result: 0.2

Task: What value of measured self-cleavage is listed for G44A C45G ?
Result: 0.2

Task: What value of measured self-cleavage is listed for U9G G19U ?
Result: 0.1

Task: What value of measured self-cleavage is listed for G22U U28C ?
Result: 0.42

Task: What value of measured self-cleavage is listed for C8U C45U ?
Result: 0.32

Task: What value of measured self-cleavage is listed for G1A C18A ?
Result: 1.81

Task: What value of measured self-cleavage is listed for C8U C23A ?
Result: 0.21

Task: What value of measured self-cleavage is listed for A16G G21C ?
Result: 0.34

Task: What value of measured self-cleavage is listed for A24G G33C ?
Result: 0.06

Task: What value of measured self-cleavage is listed for A6C U43G ?
Result: 0.03

Task: What value of measured self-cleavage is listed for A26U G36U ?
Result: 0.09

Task: What value of measured self-cleavage is listed for U9A G27C ?
Result: 0.11
